experiment: qHTS Primary assay for Inhibitors of Plasmodium falciparum Dd2 growth in vitro; note: nearly all actives have a fitted effect of over 65% in size; conditions: P. falciparum Dd2 growth, SYBR Green, 72 h; series mostly up to 28.9 µM
In all, about 120,000 compounds went through this assay and about 5,300 (4.4%) were called active. Another 22% or so got no clear call; they are omitted. Calls come from the whole dose curve; as a rule, active = well fitted inhibition curve with a large enough effect; inconclusive = small, poorly fitted or top-dose-only effect; inactive = no such curve, though single readings can be large or run the other way. Shown is part of a subset that was picked to be rich in actives.
The reply should name one outcome from Yes = active, No = inactive

Incoming: Entry `O=S(=O)(c1cccs1)N1CCC(OC2CCN(Cc3ccccc3)CC2)CC1` : call = ?
Outgoing: Yes

Incoming: Query: recorded result category for `O=C(c1cnc2c(c1)N(Cc1ccccc1)CCC2)N1CC[S+](=O)([O-])CC1` in this test
Outgoing: No

Incoming: Status in this test for Cc1oc(-c2cccc(Oc3ccccc3)c2)nc1CN1CCOC(CCN)C1 (stereo not drawn) ?
Outgoing: Yes

Incoming: Status in this test for `CCOc1ccccc1NC(=O)Cn1nnc(C(=O)Nc2ccc(C)c(C)c2)c1N` ?
Outgoing: No

Incoming: Record lookup: outcome of this test for `O=C(C1CC1)N1CCc2cc(Br)cc(S(=O)(=O)N3CCN(c4ccccc4F)CC3)c21` ?
Outgoing: No

Incoming: Record request — test call for `COc1cccc(N2C(=O)NC(=NC3CCCCC3)C23CCN(CC2CC2)CC3)c1`
Outgoing: No

Incoming: Hi, sorry to bother you, what did the test record for `COc1ccccc1Nc1c2c(nc3ccc(NC(=O)/C=C/c4cc(OC)c(OC)c(OC)c4)cc13)CCCC2` ?
Outgoing: Yes

Incoming: Check the results log: what was the call for `CCn1c2c(c(=O)n1Cc1ccccc1)CCN(C(=O)Cc1ccc3c(c1)OCO3)C2` ?
Outgoing: No

Incoming: // param item: `CCC(CC)C(=O)N[C@@H](Cn1cc(-c2ccccc2F)c(=O)[nH]c1=O)C(=O)O` ; yields the recorded call
Outgoing: No

Incoming: Lab log entry: `COc1ccc(-c2nc(Cn3c(=O)cc(C)c4c(C)nn(-c5ccccc5)c43)c(C)o2)cc1OC` — outcome as called in the assay?
Outgoing: No

Incoming: Hi, do you know how `COc1ccc(CN2CC[C@@H]3CN(S(C)(=O)=O)[C@@H]3C2)c(OC)c1` came out in this test?
Outgoing: No

Incoming: # lookup: test call for `COc1ccc2nc(C[C@@H]3C[C@@H](C(C)C)[C@H](CNC(=O)CC(C)(C)CC(=O)O)C=C3C)[nH]c2c1`
Outgoing: No

Incoming: Status in this test for CC(C)CN1CCN(C2CCOC3(CCN(S(=O)(=O)c4cccs4)CC3)C2)CC1 (stereo not drawn) ?
Outgoing: No

Incoming: Just curious, what result did COc1cc(CNCc2ccc(C)c(F)c2F)ccc1OCC(O)CN1CCC(O)CC1 (stereo not drawn) get here?
Outgoing: No

Incoming: Recorded call for `O=C(O)CCn1ncc2cc(OC3CCN(C(=O)C4CCCC4)CC3)ccc21` ?
Outgoing: No

Incoming: # lookup: test call for c1ncc(CN2CCn3c(nnc3C3CCCNC3)C2)s1 (stereo not drawn)
Outgoing: No

Incoming: Hi, sorry to bother you, what did the test record for Cc1oc(-c2cccs2)nc1CN1CCOC(Cc2ccccc2)C1 (stereo not drawn) ?
Outgoing: No

Incoming: Recorded test outcome, item COC(=O)c1ccccc1NC(=O)C(Cc1ccccc1)N1Cc2ccccc2C1=O (stereo not drawn)
Outgoing: No

Incoming: Hi, sorry to bother you, what did the test record for `CCOc1ccc(C(=O)Nc2ccc3nc4c(c(Nc5ccccc5OC)c3c2)CCCC4)cc1` ?
Outgoing: Yes

Incoming: In this assay, the call recorded for `COC(=O)c1ccccc1NC(=O)c1cc(-c2ccccc2O)no1` was what?
Outgoing: Yes

Incoming: Kindly provide the recorded test outcome for the following molecule: `CCOc1ccc(-n2nc3ccc(NC(=O)c4ccc(OC)c(Cl)c4)cc3n2)cc1`
Outgoing: No

Incoming: What did the test return for Cc1cccc(C(=O)N2CCC(CC(=O)NCc3ccccc3)C2)c1 (stereo not drawn) ?
Outgoing: No

Incoming: Hi, do you know how `COCCn1cc(CN2CCN(c3ccccc3F)CC2)ccc1=O` came out in this test?
Outgoing: No

Incoming: Answer briefly: the call reported for Cc1ccc(CN2CCC3OCCN(Cc4ccccc4)C(=O)C3C2)o1 (stereo not drawn) in this assay.
Outgoing: No

Incoming: For `Cc1ncc2n1C(=O)N(C1CCN(C(=O)c3ccc(Cl)cc3)CC1)C2` , what call appears in the results of this test?
Outgoing: No

Incoming: Which outcome did this test record for the molecule `CC1=C[C@@H](CNS(C)(=O)=O)[C@H](C(C)C)C[C@H]1Cc1nc2ccccc2[nH]1` ?
Outgoing: No

Incoming: Please state the recorded outcome for this molecule: `CC1=C[C@@H](CNC(=O)CCC(=O)O)[C@H](C(C)C)C[C@H]1Cc1nc2ccccc2n1C`
Outgoing: No

Incoming: Recorded call for `COc1ccc2[nH]c(=O)c(CCC(=O)NCC(N)=O)cc2c1` ?
Outgoing: No

Incoming: Given `Cc1ccc(Cn2c(=O)n(Cc3nc(-c4ccccc4)no3)c(=O)c3cc4c(cc32)OCO4)cc1` , state the outcome it received in this test.
Outgoing: No

Incoming: Outcome logged for CN1C(=O)c2cccn2CC1C(=O)N1CCc2ccccc21 (stereo not drawn) in this assay:
Outgoing: No

Incoming: What is the recorded call for this molecule in the test? `COc1cc(NC(=O)c2nc3ccccc3nc2C)cc(OC)c1OC`
Outgoing: No

Incoming: Entry Cc1ccc(C2CC(=O)Nc3c2c(C2CC2)nn3C)c(C)c1F (stereo not drawn) : call = ?
Outgoing: No

Incoming: For this molecule, state the assay outcome: `CC1=C[C@@H](CNC2CCN(C)CC2)[C@H](C(C)C)C[C@H]1Cc1nc2ccccc2[nH]1`
Outgoing: Yes
